Assay: recombinant barcode read abundance after kanamycin selection (control-corrected) (log10(CPM+1)); higher = more efficient recombination; sequences stand for … in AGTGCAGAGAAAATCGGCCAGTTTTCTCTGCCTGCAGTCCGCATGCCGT…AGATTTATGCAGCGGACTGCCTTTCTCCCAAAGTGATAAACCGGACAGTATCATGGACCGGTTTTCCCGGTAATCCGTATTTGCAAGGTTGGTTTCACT; site = the 11-nt target;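 also: IS621 recombinase and bridge RNA in Escherichia coli cells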
METRIC: recombinant barcode read abundance (log10)
Give your answer as a number; write no unit.

So, CTTCGGGCTTGGGTTCTAACCTGTTGCAG (site CTTCGGGCTCT) ? Its recombinant barcode read abundance (log10) was 1.96

GET /value?item= TCCCATACTTGGGTTCTAACCTGTTGCGA (site CTTGGGTCTAT) &field=recombinant barcode read abundance (log10) returns 0.0603

recombinant barcode read abundance (log10) for CTTTCCTCTTGGGTTCTAACCTGTTGCCT (site CATTCCTCTAG) is 0.153

Recorded recombinant barcode read abundance (log10) (sequence GTTCCTACTTGGGTTCTAACCTGTTGCCT (site GGTCCTACTAG) ): 0.133

Field recombinant barcode read abundance (log10) (entry TACATCCCTTGGGTTCTAACCTGTTGCCG (site TACATCCCTGG) ) reads 0.0502

Record AGCTTAGCTTGGGTTCTAACCTGTTGCCC (site AGCTTAGCTCG) , field recombinant barcode read abundance (log10): 0.0502

The reported value for ACTATAACTTGGGTTCTAACCTGTTGCTT (site ACTGTAACTAA) in terms of recombinant barcode read abundance (log10) is 0.125

What the record says about CCGCCCGCTTGGGTTCTAACCTGTTGCCT (site CCGCCCGCTAG) : recombinant barcode read abundance (log10) is 0.473

For reference, reported recombinant barcode read abundance (log10) for TCATTGACTTGGGTTCTAACCTGTTGCCT (site TTATTCACTAG) stands at 0.0739

Field recombinant barcode read abundance (log10) (entry CCGGTATCTTGGGTTCTAACCTGTTGCCT (site CCGGTATCTAG) ) reads 0.197

Item: ATCTATACTTGGGTTCTAACCTGTTGCCT (site GGACGAGCTCA) | recombinant barcode read abundance (log10): 0.0107

Documented recombinant barcode read abundance (log10) of CCTCAGGCTTGGGTTCTAACCTGTTGCCA (site CCTCAGGCTTG) : 0.323

The reported value for ATGATACCTTGGGTTCTAACCTGTTGCAT (site CCTGGGACTTA) in terms of recombinant barcode read abundance (log10) is 0.243

# recombinant barcode read abundance (log10) of TGTGAGTCTTGGGTTCTAACCTGTTGCTT (site TGTGAGTCTAA) = 0.549

For record ATCTATACTTGGGTTCTAACCTGTTGCCT (site ATCTATACTAG) the listed recombinant barcode read abundance (log10) is 0.821

recombinant barcode read abundance (log10) reported for this sequence GAGTGCTCTTGGGTTCTAACCTGTTGCAG (site GAGTGCTCTCT) : 1.26

Summary for this sequence, CAGAGCTCTTGGGTTCTAACCTGTTGCCT (site CAGAGCTCTAG) : recombinant barcode read abundance (log10) is 1.43

The recorded recombinant barcode read abundance (log10) for CCGCAGCCTTGGGTTCTAACCTGTTGCCT (site CCGAAGCCTAG) is 0.0264

recombinant barcode read abundance (log10) for TCTGATTCTTGGGTTCTAACCTGTTGCGT (site TCTCATTCTAC) is 0.00698

Value of recombinant barcode read abundance (log10) reported for the sequence TGGTGTCCTTGGGTTCTAACCTGTTGCCT (site TGGAGTCCTAG) is 0.32

Recorded result, CCACATCCTTGGGTTCTAACCTGTTGCCT (site GCACACCCTAG) , recombinant barcode read abundance (log10): 0.109

Input CGTGCGCCTTGGGTTCTAACCTGTTGCCT (site AAACTAGCTCC) . Output recombinant barcode read abundance (log10): 0.0967

recombinant barcode read abundance (log10) recorded for this sequence, TTGGACGCTTGGGTTCTAACCTGTTGCCT (site TTGGCCGCTAG) , is 0.335

Entry CGCTAGTCTTGGGTTCTAACCTGTTGCCT (site CGCTGGTCTAG) ; recombinant barcode read abundance (log10) = 0.285

Lookup result for TGCTACCCTTGGGTTCTAACCTGTTGCCT (site TACTACCCTAG) ; measured recombinant barcode read abundance (log10): 0.81

Just so you know, measured recombinant barcode read abundance (log10) for GGGAACCCTTGGGTTCTAACCTGTTGCTG (site GGGAACCCTGA) came out at 0.0561

Looking up AGTGGAGCTTGGGTTCTAACCTGTTGCCT (site AGTGGAGCTAG) , I see its recombinant barcode read abundance (log10) listed as 2.27

So for CCTCACTCTTGGGTTCTAACCTGTTGCTT (site CCTCATTCTAA) , the logged recombinant barcode read abundance (log10) turned out to be 0.0602

Documented recombinant barcode read abundance (log10) of GAACGCTCTTGGGTTCTAACCTGTTGCCA (site GAACGCTCTTG) : 0.265

# recombinant barcode read abundance (log10) of ATACGTTCTTGGGTTCTAACCTGTTGCAT (site CAGGTCCCTCG) = 0.354

Memo: TTACGCACTTGGGTTCTAACCTGTTGCCT (site TTACGCACTAG) , reported recombinant barcode read abundance (log10): 1.34

Noted for TTGAAGCCTTGGGTTCTAACCTGTTGCCT (site ATGAAGCCTAG) : its recombinant barcode read abundance (log10) reads 0.41

The sequence identified as GAGCGGACTTGGGTTCTAACCTGTTGCCT (site GAGCTGACTAG) registered its recombinant barcode read abundance (log10) at 0.129

Measured recombinant barcode read abundance (log10), TATTCTACTTGGGTTCTAACCTGTTGCGG (site TATTCTACTCC) : 0.223

// recombinant barcode read abundance (log10) value for TTGACTGCTTGGGTTCTAACCTGTTGCCT (site TTGACTGCTAG) : 0.812

response.value for CGTACCTCTTGGGTTCTAACCTGTTGCTT (site CGTACCTCTAA) (field: recombinant barcode read abundance (log10)) = 0.579

Per the record, TCCGAGACTTGGGTTCTAACCTGTTGCCG (site TCCGAGACTGG) has recombinant barcode read abundance (log10) of 0.0458

Recorded result, GAGCTACCTTGGGTTCTAACCTGTTGCCA (site GAGCTACCTAG) , recombinant barcode read abundance (log10): 0.796

Given item GGTTGAACTTGGGTTCTAACCTGTTGCAT (site GCTTGAACTAA) , the value recorded as its recombinant barcode read abundance (log10) is 0.128

The measured recombinant barcode read abundance (log10) associated with ACTATAACTTGGGTTCTAACCTGTTGCTT (site ACTTTAACTAA) reads 0.0487

# recombinant barcode read abundance (log10) (sequence: GCTAACACTTGGGTTCTAACCTGTTGCCT (site GCTAACACTAG) ) is 1.37

# recombinant barcode read abundance (log10) (sequence: ACAAGGCCTTGGGTTCTAACCTGTTGCCT (site GCAAGGCCTAG) ) is 0.126

The values you see were collected from the supplement of paper PMC11208160.
